# ASSAY_SYSTEM: HIV-1 NL43 envelope glycoprotein (Env) (HIV-1)
# PROTOCOL: cell-based or functional assay
Known IC50 neutralization of a selection of binders

input: Item PGT-125 (antibody, V domains shown) VH: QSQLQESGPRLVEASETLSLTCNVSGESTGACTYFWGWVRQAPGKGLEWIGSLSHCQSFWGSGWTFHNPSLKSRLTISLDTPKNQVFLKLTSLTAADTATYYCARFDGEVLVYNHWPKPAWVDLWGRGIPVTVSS VL: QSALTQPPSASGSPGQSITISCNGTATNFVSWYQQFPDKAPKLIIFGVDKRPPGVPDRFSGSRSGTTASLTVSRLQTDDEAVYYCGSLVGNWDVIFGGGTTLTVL : provide IC50 neutralization
output: > 10 µg/mL

input: Specify measured IC50 neutralization for PGT-136 (antibody, V domains shown) VH: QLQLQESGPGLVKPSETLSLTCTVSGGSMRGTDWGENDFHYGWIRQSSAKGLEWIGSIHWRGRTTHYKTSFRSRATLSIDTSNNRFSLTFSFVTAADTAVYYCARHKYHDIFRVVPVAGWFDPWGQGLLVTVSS VL: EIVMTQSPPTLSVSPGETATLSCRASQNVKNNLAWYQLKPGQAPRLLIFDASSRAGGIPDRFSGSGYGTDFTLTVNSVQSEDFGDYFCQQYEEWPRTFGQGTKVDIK .
output: > 10 µg/mL

input: State its IC50 neutralization for this binder: PGT-130 (antibody, V domains shown) VH: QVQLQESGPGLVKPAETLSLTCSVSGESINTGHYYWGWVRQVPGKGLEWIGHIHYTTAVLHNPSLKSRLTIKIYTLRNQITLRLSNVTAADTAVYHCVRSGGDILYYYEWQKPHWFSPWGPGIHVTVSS VL: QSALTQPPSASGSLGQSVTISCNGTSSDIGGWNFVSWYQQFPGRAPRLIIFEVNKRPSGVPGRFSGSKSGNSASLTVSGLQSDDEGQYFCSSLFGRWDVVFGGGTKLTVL
output: > 10 µg/mL
